assayed.system: human cathepsin K (UniProt P43236, Y175D/V274L, species not given)
experiment.notes: Cathepsin K Assay
Type: biochemical
test.settings: IP from dose response curve; Z-Leu-Arg-AMC substrate, pH 5.5; read-out: hrbCat K (IP (nM))
observable: IC50

Use the examples below as a reference point.
molecule	IC50
N#CC1(NC(=O)[C@@H]2C[C@@H](F)CC[C@H]2c2nn(-c3ccc(F)cn3)cc2-c2ccc(N3CCS(=N)(=O)CC3)cc2)CC1 [Example 59]	1.29 nM
N#CC1(NC(=O)[C@@H]2C[C@@H](F)CC[C@H]2c2nn(-c3ccc(F)cc3)cc2-c2ccc(N3CCS(=O)(=O)CC3)cc2)CC1 [Example 112]	1.33 nM
N#CC1(NC(=O)[C@@H]2CCC(F)(F)C[C@H]2c2nn(-c3ccc(C(F)(F)F)cn3)cc2-c2ccc(N3CCS(=O)(=O)CC3)cc2)CC1 [Example 149]	2.58 nM
Cc1c(-c2ccc(N3CCS(=O)(=O)CC3)cc2)c([C@@H]2CCCC[C@H]2C(=O)N[C@@H](C)C#N)nn1-c1ccc(F)cn1 [Example 66]	3.6 nM
N#Cc1ccc(-n2cc(-c3ccc(N4CCS(=O)(=O)CC4)cc3)c([C@@H]3CCCC[C@H]3C(=O)NC3(C#N)CC3)n2)c(F)c1 [Example 132]	2.51 nM

Moving on to another molecule below.
Q: Sample N#CC1(NC(=O)[C@@H]2CC3CC3C[C@H]2c2nn(-c3ccc(F)cn3)cc2-c2ccc(N3CCS(=O)(=O)CC3)cc2)CC1 (single isomer, unassigned) [Example 153] — what was its IC50?
Ans: 0.66 nM

###

assayed.system: human cathepsin K (UniProt P43236, Y175D/V274L, species not given)
experiment.notes: Cathepsin K Assay
Type: biochemical
test.settings: IP from dose response curve; Z-Leu-Arg-AMC substrate, pH 5.5; read-out: hrbCat K (IP (nM))
Hi there, I'd appreciate the recorded IC50 for every entry that follows.
One number for each entry, in nM.

In [3]: df
Out[3]:
                         compound_structure                            assayed_system  quantitative_result
0  CC(C)(O)c1cccc(-n2cc(-c3ccc(N4CCS(=O)(=O)CC4)cc3)c([C@@H]3CCCC[C@H]3C(=O)NC3(C#N)CC3)n2)c1  human cathepsin K (UniProt P43236, Y175D/V274L, species not given)                 1.27
1  N#CC1(NC(=O)[C@@H]2CCCC[C@H]2c2nn(-c3cccc(F)c3)cc2-c2ccc(N3CCS(=O)(=O)CC3)cc2)CC1  human cathepsin K (UniProt P43236, Y175D/V274L, species not given)                 0.33
2  Cc1c(-c2ccc(N3CCS(=O)(=O)CC3)cc2)c([C@@H]2CCC(F)(F)C[C@H]2C(=O)NC2(C#N)CC2)nn1-c1ccc(F)cn1  human cathepsin K (UniProt P43236, Y175D/V274L, species not given)                 1.28
3  Cc1c(-c2ccc(N3CCS(=O)(=O)CC3)cc2)c([C@@H]2CCCC[C@H]2C(=O)N[C@@H](C)C#N)nn1-c1ncccc1F  human cathepsin K (UniProt P43236, Y175D/V274L, species not given)                 3.62
4  N#Cc1cc(F)ccc1-n1cc(-c2ccc(N3CCS(=O)(=O)CC3)cc2)c([C@@H]2CCCC[C@H]2C(=O)NC2(C#N)CC2)n1  human cathepsin K (UniProt P43236, Y175D/V274L, species not given)                 2.88

Q: Sample N#CC1(NC(=O)[C@@H]2CCCC[C@H]2c2nn(-c3ccc(OC(F)(F)F)cc3)cc2-c2ccc(N3CCS(=O)(=O)CC3)cc2)CC1 — what was its IC50?
Ans: 1.8

###

assayed.system: human cathepsin F (Homo sapiens)
Sequence (Q9UBX1 271-484): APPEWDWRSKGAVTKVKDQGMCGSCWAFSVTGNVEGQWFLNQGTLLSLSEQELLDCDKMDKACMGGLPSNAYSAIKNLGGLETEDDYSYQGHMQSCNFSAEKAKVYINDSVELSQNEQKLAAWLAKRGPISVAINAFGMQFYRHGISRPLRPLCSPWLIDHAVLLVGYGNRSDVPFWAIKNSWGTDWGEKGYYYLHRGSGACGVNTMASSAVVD
experiment.notes: Cathepsin F Assay
Type: biochemical
test.settings: IP from dose response curve; Z-Phe-Arg-AMC substrate, pH 5.5; read-out: hCat F (IP (nM))
Binarize IC50 at 800 nM; below is YES, at or above is NO.

Worked examples, 4 compounds total:
>>> df
                         compound_structure                    assayed_system  qualitative_label
0  N#CC1(NC(=O)[C@@H]2CCCC[C@H]2c2nn(-c3ccc(F)cc3)cc2-c2ccc(N3CCS(=N)(=O)CC3)cc2)CC1  human cathepsin F (Homo sapiens)                 NO
1  Cc1cc(C#N)ccc1-n1cc(-c2ccc(N3CCS(=O)(=O)CC3)cc2)c([C@@H]2CCCC[C@H]2C(=O)NC2(C#N)CC2)n1  human cathepsin F (Homo sapiens)                YES
2  Cc1c(-c2ccc(N3CCS(=N)(=O)CC3)cc2)c([C@@H]2CCCC[C@H]2C(=O)NC2(C#N)CC2)nn1-c1ncccc1F  human cathepsin F (Homo sapiens)                 NO
3  N#CC1(NC(=O)[C@@H]2C[C@@H](F)CC[C@H]2c2nn(-c3ncccc3F)cc2-c2ccc(N3CCS(=O)(=O)CC3)cc2)CC1  human cathepsin F (Homo sapiens)                 NO

Next up:
Q: Does the reported IC50 of N#CC1CCN(c2ccc(-c3cn(-c4ccc(F)cc4)nc3[C@@H]3CCCC[C@H]3C(=O)NC3(C#N)CC3)cc2)CC1 stay below 800 nM?
Ans: YES

###

assayed.system: human cathepsin K (UniProt P43236, Y175D/V274L, species not given)
experiment.notes: Cathepsin K Assay
Assay type: biochemical
test.settings: IP from dose response curve; Z-Leu-Arg-AMC substrate, pH 5.5; read-out: hrbCat K (IP (nM))
Hi there, I'd appreciate the recorded IC50 for every entry that follows.
Numbers only, in nM.

Look at each compound and report its IC50.
1. CC(C)[C@@H](C#N)NC(=O)[C@@H]1CC(F)(F)CC[C@H]1c1nn2ccccc2c1-c1ccc(N2CCS(=O)(=O)CC2)cc1
2. Cc1c(-c2ccc(N3CCS(=O)(=O)CC3)cc2)c([C@@H]2CCCC[C@H]2C(=O)NC2(C#N)CC2)nn1-c1ccc(F)cn1
3. N#CC1CCN(c2ccc(-c3cn(-c4ccc(F)cc4)nc3[C@@H]3CCCC[C@H]3C(=O)NC3(C#N)CC3)cc2)CC1
4. N#CC1(NC(=O)[C@@H]2CCCC[C@H]2c2nn(-c3ccc(F)cc3)cc2-c2ccc(N3CCS(=O)(=O)CC3)cc2)CC1
5. N#CC1(NC(=O)[C@@H]2CCCC[C@H]2c2nn(-c3ccc(C(F)(F)F)cc3)cc2-c2ccc(N3CCS(=O)(=O)CC3)cc2)CC1
6. N#CC1(NC(=O)[C@@H]2CCC(F)(F)C[C@H]2c2nn(-c3ccc(F)cn3)cc2-c2ccc(N3CCS(=N)(=O)CC3)cc2)CC1

Ans:
1: 5.19; 2: 4.26; 3: 2.72; 4: 0.69; 5: 3.08; 6: 6.81

###

assayed.system: human cathepsin F (Homo sapiens)
experiment.notes: Cathepsin F Assay
Assay type: biochemical
test.settings: IP from dose response curve; Z-Phe-Arg-AMC substrate, pH 5.5; read-out: hCat F (IP (nM))
Hi there, I'd appreciate the recorded IC50 for every entry that follows.
One number for each entry, in nM.

>>> print(df.to_string())
                                   compound  quantitative_result
0  Cc1c(-c2ccc(N3CCS(=O)(=O)CC3)cc2)c([C@@H]2CCCC[C@H]2C(=O)NC2(C#N)CC2)nn1-c1ccc(F)cc1                  649
1  CN=S1(=O)CCN(c2ccc(-c3cn(-c4ccc(F)cn4)nc3[C@@H]3CC(F)(F)CC[C@H]3C(=O)NC(C)C#N)cc2)CC1 (single isomer, unassigned)                  431
2  N#CC1(NC(=O)[C@@H]2CCCC[C@H]2c2nn(-c3ccccc3C(F)(F)F)cc2-c2ccc(N3CCS(=O)(=O)CC3)cc2)CC1                 3120
3  Cc1c(-c2ccc(N3CCS(=N)(=O)CC3)cc2)c([C@@H]2CCCC[C@H]2C(=O)N[C@H](C#N)C(C)C)nn1-c1ncccc1F                 9320
4  COc1cccc(-n2cc(-c3ccc(N4CCS(=O)(=O)CC4)cc3)c([C@@H]3CCCC[C@H]3C(=O)NC3(C#N)CC3)n2)c1                  494

Look at each compound and report its IC50.
1. CS(=O)(=O)C1CN(c2ccc(-c3cn(-c4ccc(F)cc4)nc3[C@@H]3CCCC[C@H]3C(=O)NC3(C#N)CC3)cc2)C1
2. N#Cc1cc(Cl)ccc1-n1cc(-c2ccc(N3CCS(=O)(=O)CC3)cc2)c([C@@H]2CCCC[C@H]2C(=O)NC2(C#N)CC2)n1
3. CC1(C)CC[C@@H](c2nn(-c3ccc(F)cc3)cc2-c2ccc(N3CCS(=O)(=O)CC3)cc2)[C@H](C(=O)NC2(C#N)CC2)C1 (single isomer, unassigned)
4. N#CC1(NC(=O)[C@@H]2CCCC[C@H]2c2nn(-c3cc(F)c(F)c(F)c3)cc2-c2ccc(N3CCS(=O)(=O)CC3)cc2)CC1
5. N#CC1(NC(=O)[C@@H]2C[C@@H](F)CC[C@H]2c2nn(-c3ccc(F)cn3)cc2-c2ccc(N3CCS(=N)(=O)CC3)cc2)CC1 [Example 14]
6. N#CC1(NC(=O)[C@@H]2CC(F)(F)CC[C@H]2c2nn3ccccc3c2-c2ccc(C(=O)N3CCOCC3)cc2)CC1
7. C[C@@H](C#N)NC(=O)[C@@H]1C[C@@H](F)CC[C@H]1c1nn(-c2ccc(F)cn2)cc1-c1ccc(N2CCS(=N)(=O)CC2)cc1

Ans:
1. 2780
2. 1260
3. 632
4. 319
5. 2020
6. 339
7. 674

Source listed as patent US9656990B2.
